// provenance: PubChem BioAssay (NCI)

Below is a list of entries, each paired with its recorded TGI value.
- Test system: UACC-257 melanoma
- Test Description: NCI tumour cell line growth inhibition, 48 h
Give a bare numeral; the unit µM is implied.

Worked cases, answers included:
• O=c1c(Cl)cc2nc3ccccc3sc-2c1Cl = 8.2
• N/C(=N\S(=O)(=O)c1cc(Cl)c(Oc2ccc([N+](=O)[O-])cc2Cl)c(Cl)c1)Nc1ccc(Cl)cc1 = 32.8
• COC1=CC(=O)c2nc(Cl)ccc2C1=O = 3.12
• FC(F)(F)c1cc(Nc2ccc3cc(OCCCN4CCOCC4)ccc3n2)ccc1Cl = 3.32

Now look at this entry.
Entry CC1=NN(c2nc(N)nc(/C(C#N)=C\c3cccc([N+](=O)[O-])c3)n2)C(C)(C)C1 has what TGI?
49.3
